# system under test: IDO1 (Homo sapiens, UniProt P14902)
# Sequence (P14902 whole entry): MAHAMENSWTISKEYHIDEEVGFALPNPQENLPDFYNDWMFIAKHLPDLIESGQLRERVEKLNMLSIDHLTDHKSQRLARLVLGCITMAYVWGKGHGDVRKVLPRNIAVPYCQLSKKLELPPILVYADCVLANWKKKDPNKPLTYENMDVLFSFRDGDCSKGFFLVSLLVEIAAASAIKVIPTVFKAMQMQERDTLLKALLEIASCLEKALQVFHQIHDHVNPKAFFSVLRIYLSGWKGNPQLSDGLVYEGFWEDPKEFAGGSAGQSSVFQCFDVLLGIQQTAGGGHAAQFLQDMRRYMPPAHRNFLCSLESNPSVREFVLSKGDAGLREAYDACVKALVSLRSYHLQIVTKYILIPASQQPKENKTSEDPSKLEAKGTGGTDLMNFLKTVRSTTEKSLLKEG
# test details: IDO1 Cellular Assay in Hela Cells Stimulated with IFNγ
# Assay type: cell-based
# recorded conditions: IFNγ 100 ng/mL, 300 uM L-tryptophan, about 48 hours, fluorescence readout, read-out: IDO1 HELA Cell Assay, IC50
pIC50: −log10 of the molar value.
Lab note: anything with pIC50 at or over 7 counts as yes (1); the rest go in no (0).

Is reported pIC50 greater than or equal to 7 here: Cc1ncc(C(=O)NC23CC([C@H](C)C(=O)Nc4ccc(F)cc4)(C2)C3)cc1F [Example 65]
yes (1)

Entry Cc1ccc(C(=O)NC23CC([C@@H](C)C(=O)Nc4ccc(F)cc4)(C2)C3)cc1Cl [Example 36] : is its pIC50 no less than 7?
yes (1)

Decide: is the reported value of pIC50 for CC(C(=O)Nc1ccc(F)cc1)C12CC(NC(=O)c3cccn4nncc34)(C1)C2 (centres unmarked) [Example 143] equal to or greater than 7?
no (0)

pIC50 >= 7 for CC(C(=O)Nc1ccc(F)cc1)C12CC(NC(=O)c3cccc4cnccc34)(C1)C2 (centres unmarked) [Example 134] ?
no (0)

Record CC(C(=O)Nc1ccc(Cl)cc1)C12CC(NC(=O)OC3CC3)(C1)C2 (single isomer, unassigned) [Example 19] ; criterion: pIC50 no lower than 7. Met?
no (0)
